biological target: VEGFR2 (Homo sapiens); assay: In vitro enzymatic activity assay on VEGFR2 (HTRF); type: biochemical; conditions: GST-VEGFR2 0.1 nM, ATP 2.5 μM

molecule	tgt	IC50
CC1=C(C(=O)N2CCN(c3ccc(-c4cc(-c5cnn(C)c5)cn5ncc(C#N)c45)cn3)CC2)CCC1 [Example 6]	VEGFR2 (Homo sapiens)	8.91 nM
CSc1cccc(CN2CCN(c3ccc(-c4cc(-c5cnn(C)c5)cn5ncc(C#N)c45)cn3)CC2)n1 [Example 51]	VEGFR2 (Homo sapiens)	6.2 nM
CS(=O)(=O)c1ccc(CN2C3CC2CN(c2ccc(-c4cc(-c5cnn(C(F)F)c5)cn5ncc(C#N)c45)cn2)C3)nc1 [Example 78]	VEGFR2 (Homo sapiens)	10.4 nM

====

target: RET^WT (Homo sapiens, UniProt P07949)
Sequence (P07949 658-1114): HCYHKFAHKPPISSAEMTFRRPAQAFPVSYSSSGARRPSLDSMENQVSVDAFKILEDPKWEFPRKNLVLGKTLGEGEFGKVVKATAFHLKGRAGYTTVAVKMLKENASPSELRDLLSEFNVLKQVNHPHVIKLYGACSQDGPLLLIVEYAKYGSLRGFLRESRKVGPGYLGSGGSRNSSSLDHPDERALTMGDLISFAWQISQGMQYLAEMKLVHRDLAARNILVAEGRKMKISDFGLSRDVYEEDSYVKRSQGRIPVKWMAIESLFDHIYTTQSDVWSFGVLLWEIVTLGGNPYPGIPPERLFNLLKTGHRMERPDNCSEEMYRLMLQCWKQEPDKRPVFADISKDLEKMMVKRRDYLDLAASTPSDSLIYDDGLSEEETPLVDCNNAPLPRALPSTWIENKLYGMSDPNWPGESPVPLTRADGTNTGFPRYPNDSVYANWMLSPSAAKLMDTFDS
pIC50: −log10 of the molar value.
metric_name: pIC50

compound	metric_name	test_result
COC/C=C/C(=O)N1C2CC1CN(c1ccc(-c3cc(-c4cnn(C(F)F)c4)cn4ncc(C#N)c34)cn1)C2 [Example 62]	pIC50	8.95
CS(=O)(=O)c1ccc(CN2C3CC2CN(c2ccc(-c4cc(-c5cnn(C(F)F)c5)cn5ncc(C#N)c45)cn2)C3)nc1 [Example 78]	pIC50	9.41
CS(=O)(=O)c1ccccc1CN1CCN(c2ccc(-c3cc(-c4cnn(C(F)F)c4)cn4ncc(C#N)c34)cn2)CC1 [Example 48]	pIC50	9.24
COc1ccc(CN2C3CC2CN(c2ccc(-c4cc(N5CC(OC)C5)cn5ncc(C#N)c45)cn2)C3)cn1 [Example 27]	pIC50	9.27
CSc1ccc(CN2C3CC2CN(c2ccc(-c4cc(-c5cnn(C)c5)cn5ncc(C#N)c45)cn2)C3)nc1 [Example 22]	pIC50	9.91
CS(=O)(=O)c1ccc(CN2C3CC2CN(c2ccc(-c4cc(-c5cnn(C(F)F)c5)cn5ncc(C#N)c45)cn2)C3)cn1 [Example 77]	pIC50	9.33
CS(=O)(=O)c1cccc(CN2CCN(c3ccc(-c4cc(-c5cnn(C(F)F)c5)cn5ncc(C#N)c45)cn3)CC2)c1 [Example 47]	pIC50	9.46
CS(=O)(=O)c1ccc(CN2C3CC2CN(c2ccc(-c4cc(N5CC(C#N)C5)cn5ncc(C#N)c45)cn2)C3)cc1 [Example 35]	pIC50	9.76
CSc1ccc(CN2C3CC2CN(c2ccc(-c4cc(-c5cnn(C(F)F)c5)cn5ncc(C#N)c45)cn2)C3)cn1 [Example 60]	pIC50	9.99
Cn1cc(-c2cc(-c3cnc(N4CC5CC(C4)N5Cc4ccc(S(C)(=O)=O)cc4)cn3)c3c(C#N)cnn3c2)cn1 [Example 41]	pIC50	9.45
CC1(O)CN(c2cc(-c3ccc(N4CC5CC(C4)N5Cc4cccc(S(C)(=O)=O)c4)nc3)c3c(C#N)cnn3c2)C1 [Example 65]	pIC50	9.17

====

target: VEGFR2 (Homo sapiens, UniProt P35968); assay: In vitro enzymatic activity assay on VEGFR2 (HTRF); type: biochemical; conditions: GST-VEGFR2 0.1 nM, ATP 2.5 μM
Sequence (P35968 20-1356): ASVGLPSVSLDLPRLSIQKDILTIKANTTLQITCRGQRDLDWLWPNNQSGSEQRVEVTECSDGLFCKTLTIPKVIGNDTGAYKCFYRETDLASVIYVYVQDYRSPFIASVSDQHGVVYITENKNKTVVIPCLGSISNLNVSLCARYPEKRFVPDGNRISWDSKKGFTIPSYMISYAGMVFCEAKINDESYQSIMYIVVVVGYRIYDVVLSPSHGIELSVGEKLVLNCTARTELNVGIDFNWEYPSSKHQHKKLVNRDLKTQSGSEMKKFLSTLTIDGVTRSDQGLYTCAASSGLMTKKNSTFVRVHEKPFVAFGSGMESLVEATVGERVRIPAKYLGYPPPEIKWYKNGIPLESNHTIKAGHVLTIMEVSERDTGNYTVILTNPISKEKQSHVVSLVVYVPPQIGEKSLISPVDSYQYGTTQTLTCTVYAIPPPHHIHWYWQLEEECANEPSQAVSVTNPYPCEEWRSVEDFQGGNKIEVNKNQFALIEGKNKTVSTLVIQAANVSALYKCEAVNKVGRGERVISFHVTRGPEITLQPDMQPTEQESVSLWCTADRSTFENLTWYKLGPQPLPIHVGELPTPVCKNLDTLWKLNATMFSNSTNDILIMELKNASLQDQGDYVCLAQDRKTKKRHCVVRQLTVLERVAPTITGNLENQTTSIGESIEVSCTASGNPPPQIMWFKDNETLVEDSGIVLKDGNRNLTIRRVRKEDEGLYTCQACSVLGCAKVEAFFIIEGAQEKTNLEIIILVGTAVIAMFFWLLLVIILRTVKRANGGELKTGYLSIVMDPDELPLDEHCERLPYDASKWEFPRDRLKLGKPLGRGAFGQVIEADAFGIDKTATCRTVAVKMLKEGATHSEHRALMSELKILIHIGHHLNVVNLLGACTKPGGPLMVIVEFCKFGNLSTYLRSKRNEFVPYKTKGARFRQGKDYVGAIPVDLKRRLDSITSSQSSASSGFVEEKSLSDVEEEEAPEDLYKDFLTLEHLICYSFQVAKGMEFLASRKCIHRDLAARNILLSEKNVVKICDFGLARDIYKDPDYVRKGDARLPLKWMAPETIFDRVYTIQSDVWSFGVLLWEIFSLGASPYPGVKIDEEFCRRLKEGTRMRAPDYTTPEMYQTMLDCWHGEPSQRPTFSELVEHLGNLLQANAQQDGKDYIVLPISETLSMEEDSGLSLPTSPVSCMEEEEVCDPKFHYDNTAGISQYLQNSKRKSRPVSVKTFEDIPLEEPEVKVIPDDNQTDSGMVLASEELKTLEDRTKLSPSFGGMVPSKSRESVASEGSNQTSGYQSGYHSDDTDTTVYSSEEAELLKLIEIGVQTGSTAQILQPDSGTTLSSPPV
metric_name: IC50 (nM)

structure_notation	tgt	test_result
CS(=O)(=O)c1ccc(CN2C3CCC2CN(c2ccc(-c4cc(-c5cnn(C(F)F)c5)cn5ncc(C#N)c45)cn2)C3)cc1	VEGFR2 (Homo sapiens, UniProt P35968)	63.1
CSc1ccc(CN2C3CC2CN(c2ccc(-c4cc(-c5cnn(C(F)F)c5)cn5ncc(C#N)c45)cn2)C3)nc1	VEGFR2 (Homo sapiens, UniProt P35968)	2.94
CS(=O)(=O)c1ccc(CN2C3CC2CN(c2ccc(-c4cc(-c5cnn(C(F)F)c5)cn5ncc(C#N)c45)cn2)C3)cc1	VEGFR2 (Homo sapiens, UniProt P35968)	4.96
COc1ccc(CN2C3CC2CN(c2cnc(-c4cc(-c5cnn(C)c5)cn5ncc(C#N)c45)cn2)C3)cn1	VEGFR2 (Homo sapiens, UniProt P35968)	3.01
COc1ccc(CN2C3CC2CN(c2ccc(-c4cc(N5CC(F)(F)C5)cn5ncc(C#N)c45)cn2)C3)nc1	VEGFR2 (Homo sapiens, UniProt P35968)	17.2
COc1ccc(CN2CCN(c3ccc(-c4cc(N5CC(OC)C5)cn5ncc(C#N)c45)cn3)CC2)cn1	VEGFR2 (Homo sapiens, UniProt P35968)	7.5
CS(=O)(=O)c1ccc(CN2C3CC2CN(c2ccc(-c4cc(N5CC(C#N)C5)cn5ncc(C#N)c45)cn2)C3)cc1	VEGFR2 (Homo sapiens, UniProt P35968)	9.6
CS(=O)(=O)c1ccccc1CN1C2CC1CN(c1ccc(-c3cc(-c4cnn(C(F)F)c4)cn4ncc(C#N)c34)cn1)C2	VEGFR2 (Homo sapiens, UniProt P35968)	59
CS(=O)(=O)c1cccc(CN2CCN(c3ccc(-c4cc(-c5cnn(C(F)F)c5)cn5ncc(C#N)c45)cn3)CC2)c1	VEGFR2 (Homo sapiens, UniProt P35968)	16.9
CSc1ccc(CN2C3CC2CN(c2ccc(-c4cc(-c5cnn(C(F)F)c5)cn5ncc(C#N)c45)cn2)C3)cn1	VEGFR2 (Homo sapiens, UniProt P35968)	3.1
COc1ccc(CN2C3CC2CN(c2ccc(-c4cc(N5CC(C#N)C5)cn5ncc(C#N)c45)cn2)C3)cn1	VEGFR2 (Homo sapiens, UniProt P35968)	3.44
Cn1cc(-c2cc(-c3ccc(N4CC5CC(C4)N5Cc4ccc(S(C)(=O)=O)cn4)nc3)c3c(C#N)cnn3c2)cn1	VEGFR2 (Homo sapiens, UniProt P35968)	5.21
CS(=O)(=O)c1ccc(CN2C3CC2CN(c2ccc(-c4cc(-c5cnn(C(F)F)c5)cn5ncc(C#N)c45)cn2)C3)cn1	VEGFR2 (Homo sapiens, UniProt P35968)	7.56
Cn1cc(-c2cc(-c3cnc(N4CC5CC(C4)N5Cc4ccc(S(C)(=O)=O)cc4)cn3)c3c(C#N)cnn3c2)cn1	VEGFR2 (Homo sapiens, UniProt P35968)	17.3
CS(=O)(=O)c1ccc(CN2C3CC2CN(c2ccc(-c4cc(-c5cnn(C(F)(F)F)c5)cn5ncc(C#N)c45)cn2)C3)cc1	VEGFR2 (Homo sapiens, UniProt P35968)	13.3
CC(C)(O)COc1cc(-c2ccc(N3CC4CC(C3)N4Cc3ccc(S(C)(=O)=O)cc3)nc2)c2c(C#N)cnn2c1	VEGFR2 (Homo sapiens, UniProt P35968)	40.3
CS(=O)(=O)c1ccc(CN2C3CC2CN(c2ccc(-c4cc(-c5cn[nH]c5)cn5ncc(C#N)c45)cn2)C3)cc1	VEGFR2 (Homo sapiens, UniProt P35968)	2.46
CSc1ccc(CN2C3CCC2CN(c2ccc(-c4cc(-c5cnn(C(F)F)c5)cn5ncc(C#N)c45)cn2)C3)cn1	VEGFR2 (Homo sapiens, UniProt P35968)	65.4
